# EXPERIMENTAL TARGET: ANO2 (Homo sapiens (Human), UniProt Q9NQ90)
# Sequence (Q9NQ90 other isoform, or with tags, fused parts or gaps, species assumed): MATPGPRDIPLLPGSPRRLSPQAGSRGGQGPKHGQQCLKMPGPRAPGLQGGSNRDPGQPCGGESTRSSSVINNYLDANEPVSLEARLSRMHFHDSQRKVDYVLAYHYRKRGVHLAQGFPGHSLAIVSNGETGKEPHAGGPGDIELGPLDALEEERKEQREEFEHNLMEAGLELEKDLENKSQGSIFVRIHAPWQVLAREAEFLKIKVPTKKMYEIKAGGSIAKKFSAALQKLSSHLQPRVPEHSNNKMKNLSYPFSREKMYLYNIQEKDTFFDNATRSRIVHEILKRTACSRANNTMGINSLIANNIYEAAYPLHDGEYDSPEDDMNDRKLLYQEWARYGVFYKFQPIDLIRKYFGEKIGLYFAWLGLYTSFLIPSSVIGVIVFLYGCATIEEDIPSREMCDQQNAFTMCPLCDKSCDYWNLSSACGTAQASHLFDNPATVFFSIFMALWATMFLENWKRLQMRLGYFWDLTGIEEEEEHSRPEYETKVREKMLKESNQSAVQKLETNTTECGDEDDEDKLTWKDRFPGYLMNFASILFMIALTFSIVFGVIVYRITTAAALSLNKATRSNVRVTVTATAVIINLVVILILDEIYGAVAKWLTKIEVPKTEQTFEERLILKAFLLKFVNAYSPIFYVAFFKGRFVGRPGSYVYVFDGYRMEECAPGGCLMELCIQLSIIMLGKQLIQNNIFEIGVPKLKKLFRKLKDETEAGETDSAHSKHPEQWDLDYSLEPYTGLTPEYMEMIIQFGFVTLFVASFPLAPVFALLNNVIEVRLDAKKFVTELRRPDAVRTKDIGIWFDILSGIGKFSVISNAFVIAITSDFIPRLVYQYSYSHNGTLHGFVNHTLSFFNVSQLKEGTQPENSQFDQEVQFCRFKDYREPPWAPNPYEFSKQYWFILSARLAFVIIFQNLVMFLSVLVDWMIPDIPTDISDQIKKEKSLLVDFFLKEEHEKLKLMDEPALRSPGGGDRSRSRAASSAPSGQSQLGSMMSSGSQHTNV
# MEASUREMENT PROTOCOL: Selective inhibition of ANO1 over ANO2 (Table 1), ANO2 IC50
# Assay type: cell-based
ASSAY METRIC: IC50

// known answers, use as guide
{"MOLECULE": "COc1cccc(CNC(=O)COc2ccc(Cl)cc2C)c1", "OBSERVED MEASUREMENT": "> 100 µM"}
{"MOLECULE": "Cc1cc(Cl)ccc1OCc1nnc(-c2ccco2)o1", "OBSERVED MEASUREMENT": "> 100 µM"}
{"MOLECULE": "COc1ccccc1-c1nnc(COc2ccc(Cl)cc2C)o1", "OBSERVED MEASUREMENT": "12.4 µM"}
{"MOLECULE": "COc1ccccc1-c1nnc(-c2cc3cc(Cl)ccc3o2)o1", "OBSERVED MEASUREMENT": "> 100 µM"}
{"MOLECULE": "Cc1cc(Cl)ccc1OC(C)(C)C(=O)N/N=C/c1ccccc1OC(F)(F)F", "OBSERVED MEASUREMENT": "> 100 µM"}
{"MOLECULE": "CCOC(=O)c1csc(NC(=O)COc2ccc(Cl)cc2C)n1", "OBSERVED MEASUREMENT": "> 100 µM"}

INPUT: Using known records, supply IC50 for `Cc1cc(Cl)ccc1OCC(=O)N/N=C/c1ccccn1`
OUTPUT: > 100 µM

INPUT: Using known records, supply IC50 for `Cc1cc(Cl)ccc1OCc1nnc(-c2ccccc2F)o1`
OUTPUT: > 100 µM

INPUT: Using known records, supply IC50 for `Cc1cc(Cl)ccc1OCC(=O)Nc1nc2ccccc2s1`
OUTPUT: > 100 µM

INPUT: Using known records, supply IC50 for `Cc1cc(Cl)ccc1OCc1nnc(-c2ccccc2C(F)(F)F)o1`
OUTPUT: > 100 µM

INPUT: Using known records, supply IC50 for `Cc1cc(Cl)ccc1OC(F)(F)C(=O)N/N=C/c1ccccc1OC(F)(F)F`
OUTPUT: > 100 µM

INPUT: Using known records, supply IC50 for `COc1ccccc1/C=N/NC(=O)c1cc2cc(Cl)ccc2o1`
OUTPUT: > 100 µM

INPUT: Using known records, supply IC50 for `COc1cccc(-c2nnc(COc3ccc(Cl)cc3C)o2)c1`
OUTPUT: > 100 µM

INPUT: Using known records, supply IC50 for `Cc1cc(Cl)ccc1OCc1nnc(-c2cccc(F)c2)o1`
OUTPUT: > 100 µM

INPUT: Using known records, supply IC50 for `COc1ccccc1CNNC(=O)COc1ccc(Cl)cc1C`
OUTPUT: > 100 µM

INPUT: Using known records, supply IC50 for `COc1ccccc1CNC(=O)COc1ccc(Cl)cc1C`
OUTPUT: 13.1 µM

INPUT: Using known records, supply IC50 for `CCOC(=O)c1cc2ccccn2c1/C=N/NC(=O)COc1ccc(Cl)cc1C`
OUTPUT: > 100 µM

INPUT: Using known records, supply IC50 for CCOC(=O)C(F)Oc1ccccc1/C=N/NC(=O)COc1ccc(Cl)cc1C (stereo not shown)
OUTPUT: 59.4 µM

INPUT: Using known records, supply IC50 for `C/C(=N\NC(=O)COc1ccc(Cl)cc1C)c1ccccc1OC(F)(F)F`
OUTPUT: > 100 µM
